Tested on: LOX IMVI
Assay: NCI tumour cell line growth inhibition, 48 h
The source made the active and inactive calls. Rule as the data show it: active = GI50 up to about 1.1 µM and inactive = higher. Where a SMILES comes first, the peptide text is derived from it. [ ]: non-standard residue; d: D form. The star is where a group is joined. Bn2Val = CC(C)[C@@H](C(=O)*)N(Cc1ccccc1)Cc1ccccc1; NH(3,4-diMeO-benzyl) = COc1ccc(CN*)cc1OC; NMeV = CN[C@H](C(=O)O)C(C)C
Examples of compounds with documented GI50 follow.

The cases that follow already have their GI50 on record.
Which GI50 reading was recorded for the compound "Cc1ccc2c(c1)c1ccc3c(c1n2C)C(=O)C=CC3=O" ?
9.53 µM (inactive)

Here is the next compound: "Nc1ncnc2c1ccn2C/C=C\CO"
> 100 µM (inactive)

Next record, please: COc1ccc(CNC(=O)[C@@H]2CCCN2C(=O)[C@@H]2CCCN2C(=O)[C@H](C(C)C)N(C)C(=O)[C@@H](NC(=O)[C@H](C(C)C)N(Cc2ccccc2)Cc2ccccc2)C(C)C)cc1OC (Bn2Val-V[NMeV]PP-{NH(3,4-diMeO-benzyl)})
4.26 µM (inactive)

***
Entry "Cc1ccc(S(=O)(=O)n2ccn3c(=O)cc(C)nc23)cc1" has what GI50?
> 10 µM (inactive)

Origin of values: ChEMBL document CHEMBL1201862
